Data origin: the supplement of paper PMC11865577

Reported normalised indicator fluorescence by item:
- Tested on: hsa-mir-21 loop
- ASSAY METHOD TEXT: normalised indicator fluorescence (fraction of RNA + indicator signal without compound); higher = less displacement of indicator (weaker competition)
- CONDITION DESCRIPTION: compound concentration: 5 uM; 30 min; indicator: TO-PRO-3 0.5 uM; RNA concentration: 0.5 uM
Counter-ions that a name gives are not always drawn.
ATTRIBUTE MEASURED: normalised indicator fluorescence

INSERT INTO results (compound, attribute_measured, reported) VALUES
  ('Cn1cc(-c2ccc3c(c2)CCN3C(=O)Cc2cccc(C(F)(F)F)c2)c2c(N)ncnc21', 'normalised indicator fluorescence', 1.07),
  ('Oc1cc(O)c2c(c1)O[C@H](c1ccc(O)c(O)c1)[C@@H](O)C2 [(+)-Catechin Hydrate]', 'normalised indicator fluorescence', 1.02),
  ('COC1=CC(=O)c2ccccc2C1=O', 'normalised indicator fluorescence', 1.05),
  ('CNC(=O)c1ccc(C)c(-n2c(C)cc(OCc3ccc(F)cc3F)c(Br)c2=O)c1', 'normalised indicator fluorescence', 1.02),
  ('CO[C@@H]1[C@H](N(C)C(=O)c2ccccc2)C[C@H]2O[C@]1(C)n1c3ccccc3c3c4c(c5c6ccccc6n2c5c31)C(=O)NC4', 'normalised indicator fluorescence', 1.06),
  ('CN(C)C[C@@H]1CCn2cc(c3ccccc32)C2=C(C(=O)NC2=O)c2cn(c3ccccc23)CCO1 [Ruboxistaurin hydrochloride]', 'normalised indicator fluorescence', 1.01),
  ('Oc1cc(O)c2c(c1)O[C@H](c1ccc(O)c(O)c1)[C@@H](O)C2 [Cianidanol]', 'normalised indicator fluorescence', 1.06),
  ('CN(C)CCCN1c2ccccc2CCc2ccc(Cl)cc21 [Clomipramine hydrochloride]', 'normalised indicator fluorescence', 0.987),
  ('CO[C@H]1/C=C/O[C@@]2(C)Oc3c(C)c(O)c4c(c3C2=O)C2=NC3(CCN(CC(C)C)CC3)NC2=C(NC(=O)/C(C)=C\C=C\[C@H](C)[C@H](O)[C@@H](C)[C@@H](O)[C@@H](C)[C@H](OC(C)=O)[C@@H]1C)C4=O', 'normalised indicator fluorescence', 0.969),
  ('CC1=NN(c2ccccc2)C(=O)C1', 'normalised indicator fluorescence', 1.04),
  ('O=C(O)C(O)Cc1ccc(O)c(O)c1 (configuration not stated) [Sodium Danshensu]', 'normalised indicator fluorescence', 1.05),
  ('Cc1c(C)c2c(c(C)c1O)CCC(C)(C(=O)O)O2 (configuration not stated)', 'normalised indicator fluorescence', 0.957),
  ('O=c1ccc2ccc(O)c(O)c2o1', 'normalised indicator fluorescence', 0.941),
  ('[I-].[K+] [Potassium iodide]', 'normalised indicator fluorescence', 1.03),
  ('CC(C)OC(=O)CCC/C=C\C[C@@H]1[C@@H](CC[C@@H](O)CCc2ccccc2)[C@H](O)C[C@@H]1O', 'normalised indicator fluorescence', 0.978),
  ('CC1(C)OC(=O)C=C[C@]2(C)[C@H]3CC[C@@]4(C)[C@H](c5ccoc5)OC(=O)[C@H]5O[C@]54[C@]3(C)C(=O)C[C@@H]12', 'normalised indicator fluorescence', 1.08),
  ('CC1(C)C=Cc2c(ccc3c2OC[C@@H](c2ccc(O)cc2O)C3)O1', 'normalised indicator fluorescence', 1.03);
